Cited source: PubChem BioAssay (EPA / NIEHS)

assay: CEETOX_H295R_OHPREG: CeeTox H295R High-throughput Steroidogenesis Assay for OH-Pregnenolone (OHPREG) (AID 2283434); settings: actives raise or lower the signal
The source made the active and inactive calls. The calls were made as follows: active = hit-call score of the fitted dose curve at least 0.9, where 1 is the maximum; inactive = score below 0.9.
Please answer using one outcome listed in active, inactive

Q: What outcome does the record of this test show for `CC(C)(c1ccccc1)c1ccc(Nc2ccc(C(C)(C)c3ccccc3)cc2)cc1` ?
Ans: active

Q: Next entry: `CCN1CN(CC)CN(CC)C1`
Ans: inactive

Q: Next entry: `O=C(OCc1ccccc1)c1ccc(O)cc1`
Ans: active

Q: Next entry: `C=CC(=O)OCCCCCCOC(=O)C=C`
Ans: inactive

Q: Next entry: `COc1ccc(C(=O)c2ccccc2)c(O)c1`
Ans: inactive

Q: Next entry: CCOC(=O)C1=NN(c2ccc(Cl)cc2Cl)C(C)(C(=O)OCC)C1 (centres undefined)
Ans: inactive

Q: Next entry: `C=C[C@@]1(C)CC(=O)[C@]2(O)[C@@]3(C)[C@@H](O)CCC(C)(C)[C@@H]3[C@H](O)[C@H](OC(C)=O)[C@@]2(C)O1`
Ans: active

Q: Next entry: `Cc1ccc([N+](=O)[O-])cc1N`
Ans: inactive

Q: Next entry: `O=C(O)c1cc(O)c2ccccc2c1O`
Ans: inactive
